target: CYP2E1 (Homo sapiens); construct: pooled mixed-gender human liver microsomes; from tissue; host or cells: pooled mixed-gender human liver microsomes; test: in vitro; format: in vitro ADME; conditions: both sexes, human, microsomes, Chlorzoxazone 6-hydroxylation; 30-min preincubation; 49.5 µM; read-out: Time-dependent inhibition, maximum inhibition at 49.5 µM
Sequence (P05181 whole entry): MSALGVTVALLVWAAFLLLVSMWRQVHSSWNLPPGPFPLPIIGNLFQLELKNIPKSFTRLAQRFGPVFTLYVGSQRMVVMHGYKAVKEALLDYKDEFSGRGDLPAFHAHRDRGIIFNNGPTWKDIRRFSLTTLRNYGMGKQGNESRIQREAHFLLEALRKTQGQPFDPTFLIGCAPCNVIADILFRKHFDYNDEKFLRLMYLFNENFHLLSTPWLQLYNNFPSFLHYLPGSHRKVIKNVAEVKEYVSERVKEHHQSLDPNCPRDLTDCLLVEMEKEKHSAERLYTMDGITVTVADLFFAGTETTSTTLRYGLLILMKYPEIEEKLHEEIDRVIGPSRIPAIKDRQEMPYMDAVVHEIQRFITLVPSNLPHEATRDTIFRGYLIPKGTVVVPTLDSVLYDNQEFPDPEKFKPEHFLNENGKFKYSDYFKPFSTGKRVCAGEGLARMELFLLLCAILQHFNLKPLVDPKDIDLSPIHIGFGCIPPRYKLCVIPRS
result type: inhibition at 49.5 µM (%)
Answers are plain numbers, in %.

Find the recorded inhibition at 49.5 µM belonging to "CN1CCC(COc2cnc(-c3cccc(Cn4nc(-c5cccc(C#N)c5)ccc4=O)c3)nc2)CC1" and report it. 17

====

target: CYP2B6 (Homo sapiens, UniProt P20813); construct: pooled mixed-gender human liver microsomes; from tissue; host or cells: pooled mixed-gender human liver microsomes; test: CYP2B6 inhibition in pooled human liver microsomes; format: in vitro ADME; conditions: Efavirenz 8-hydroxylation; 30-min preincubation; read-out: Time-dependent inhibition IC50
Sequence (P20813 whole entry): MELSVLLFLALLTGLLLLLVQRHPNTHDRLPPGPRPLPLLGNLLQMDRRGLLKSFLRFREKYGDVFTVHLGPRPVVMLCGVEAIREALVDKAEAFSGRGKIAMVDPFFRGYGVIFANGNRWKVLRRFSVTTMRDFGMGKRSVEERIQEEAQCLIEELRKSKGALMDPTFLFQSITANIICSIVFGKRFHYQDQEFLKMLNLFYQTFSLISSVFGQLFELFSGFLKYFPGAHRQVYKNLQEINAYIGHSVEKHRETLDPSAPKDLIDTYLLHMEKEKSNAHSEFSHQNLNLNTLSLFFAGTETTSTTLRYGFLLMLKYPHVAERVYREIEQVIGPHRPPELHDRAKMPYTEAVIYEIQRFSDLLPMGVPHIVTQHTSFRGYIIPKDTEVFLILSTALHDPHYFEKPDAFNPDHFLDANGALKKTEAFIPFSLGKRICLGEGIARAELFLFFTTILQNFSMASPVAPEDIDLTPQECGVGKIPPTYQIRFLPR
result type: pIC50
Give bare numbers, as −log10 of the molar value.

Find the recorded pIC50 belonging to "CN1CCC(COc2cnc(-c3cccc(Cn4nc(-c5cccc(C#N)c5)ccc4=O)c3)nc2)CC1" and report it. 4.36
